Entries and their inhibition values follow.
measured target: Glucose transporter (Leishmania mexicana) (UniProt O61059)
protocol notes: ST_JUDE_LEISH: Cytotoxicity at 2uM final concentration against transgenic Leishmania Mexicana promastigotes LmGT2 that are glucose transport deficient and complemented with the L. Mexicana glucose transporter 2. Activity is measured by DNA content using SYBR green in vitro
Type: functional
measure name: inhibition

* CCOc1ccc(Nc2ccc3nonc3c2S(=O)(=O)Nc2ccc(OCC)cc2)cc1 | -0.61%
* CC(=O)N1CCN(c2ccc(NC(=O)c3oc(-c4ccccc4)nc3C(F)(F)F)cn2)CC1 | 1.05%
* O=C(Nc1ccc(Cl)c(Cl)c1)N(Cc1ccccc1Br)C1CCNCC1 | 0.68%
* CCN(CC)CCN(Cc1ccc(-c2ccc(C(F)(F)F)cc2)cc1)C(=O)Cn1c(CCc2cccc(F)c2F)nc(=O)c2cc(F)ccc21 | 4.5%
* COc1ccc(-n2ccnc2SCC(=O)Nc2cc(C)ccc2C)c(OC)c1 | 0.53%
* COc1ccc(NC(=O)N2CCN(CCCCCNC(=O)/C=C/c3ccc(C(F)(F)F)cc3)CC2)cc1Cl | 1.35%
* O=C(/C=C/c1ccc(Cl)c(Cl)c1)NCCCCCN1CCC(NC(=O)Nc2ccc(Br)cc2)CC1 | -0.46%
* O=C(NCCCCN1CCC(c2ccc3c(c2OCc2ccncc2)CCCC3)CC1)c1ccc(-c2ccc(C(F)(F)F)cc2)cc1 | 0.42%
* O=C(Nc1cc(Cl)cc(Cl)c1)Nc1ccnc2ccccc12 | -2.71%
* Cc1ccc2nc(C)n(C3CCN(C(=O)Cc4ccc(F)c(F)c4)CC3)c2c1 | 2.78%
* O=C(Nc1cccc(-c2ccc(CN3CCC(O)CC3)cc2)c1)c1cccc(Cl)c1 | 2.17%
* NCCC(=O)Nc1ccc(-c2cnc3[nH]cc(-c4ccc(C(=O)O)cc4)c3c2)cn1 | 0.13%
* Cc1cc(Nc2ccnc(-c3ccc(Cl)cc3)n2)ccn1 | 8.52%
* Cc1[nH]c(C)c(-c2ccc(OCc3ccc(F)cc3)cc2)c(=O)c1Cl | -1.77%
* COc1ccc(CC(=O)NC(CCN2CCC3(CCc4ccccc43)CC2)c2ccc(Cl)c(Cl)c2)cc1 (centres undefined) | -0.93%
* Cc1ccc(-c2nc(N3CCN(C(=O)c4ccco4)CC3)c3ccc(Cl)cc3n2)cc1 | 2.34%
* CN(c1ccc2c(c1)nc(NCc1ccc(F)cc1)n2C)c1ccnc(Nc2ccc(CS(C)(=O)=O)cc2)n1 | -1.02%
* CCOc1ccc2c(=NN=Cc3cc(OC)c(OC)cc3OC)cc(C)[nH]c2c1 | -1.87%
* O=C(Nc1cc(C(F)(F)F)ccc1-n1cncn1)C1(c2ccccc2)CC1 | 0.27%

###

measured target: Solute carrier family 2, facilitated glucose transporter member 1 (Homo sapiens) (UniProt P11166)
Sequence (P11166 whole entry): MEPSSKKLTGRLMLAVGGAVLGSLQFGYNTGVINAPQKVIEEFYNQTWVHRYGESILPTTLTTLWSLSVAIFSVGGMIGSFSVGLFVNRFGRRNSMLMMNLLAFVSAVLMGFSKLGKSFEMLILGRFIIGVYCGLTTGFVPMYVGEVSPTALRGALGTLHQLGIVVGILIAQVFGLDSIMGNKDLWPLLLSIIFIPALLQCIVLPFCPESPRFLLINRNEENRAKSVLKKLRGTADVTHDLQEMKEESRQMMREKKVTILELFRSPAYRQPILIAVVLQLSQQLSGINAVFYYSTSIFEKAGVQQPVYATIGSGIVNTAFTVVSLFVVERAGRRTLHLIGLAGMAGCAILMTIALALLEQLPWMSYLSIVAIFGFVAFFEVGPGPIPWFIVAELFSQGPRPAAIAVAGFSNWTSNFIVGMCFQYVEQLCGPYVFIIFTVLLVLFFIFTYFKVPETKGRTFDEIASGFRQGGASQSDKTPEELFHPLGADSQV
protocol notes: ST_JUDE_LEISH: Cytotoxicity at 2uM final concentration against transgenic Leishmania Mexicana promastigotes LmGLUT1 that are glucose transport deficient and complemented with the human glucose transporter GLUT1. Activity is measured by DNA content using SYBR green in vitro
Format: functional
measure name: inhibition (%)

- CN1CCC(N2CCN(Cc3ccc(-c4ccc(-c5nc6ccccc6[nH]5)s4)cc3)CC2)CC1: 8.42
- CCOc1cccc(C(=O)Nc2cccc(CN3CCCN(Cc4ccc(O)cc4)CC3)c2)c1: 3.17
- O=C(NC1CCCCC1)N(Cc1ccc(-c2ccc(CNCc3ccc4c(c3)OCO4)cc2)cc1)C1CCN(Cc2ccccc2)CC1: 2.03
- COc1cc(CN=C(S)NN=C(C)c2ccccn2)cc(OC)c1OC: 5.41
- O=[N+]([O-])c1ccc2nc(Nc3ccc(Cl)c(Cl)c3)c(Nc3ccc(Cl)c(Cl)c3)nc2c1: 0.54
- Cc1cccc2nc(-c3ccc(-c4ccc(C(=O)NCCc5cn(C)cn5)cc4)s3)[nH]c12: 4.34
- Cc1cccc2nc(-c3cccc(-c4ccc(NC(=O)C(C)CN(C)C)cc4)c3)[nH]c12 (stereo not given): -2.74
- Cc1cccc(C)c1C1CCN(C2CCC(NC(=O)/C=C/c3ccccc3)CC2)CC1 (stereo not given): 5.77
- CC(C)CCNc1nc(NCCc2ccccc2)c2cc(O)ccc2n1: 7.05
- COc1ccc(O)c(C(=O)c2cc(C(=O)NC3CCCCC3)c(=O)n(C3CCCCC3)c2)c1: 5.33
- COc1ccc(Cl)cc1NC(=O)CN(C)C(=O)c1cnn(-c2ccccc2)n1: 1.85
- FC(F)(F)c1cc(Nc2ncnc3ccc(Br)cc23)ccc1OCc1ccccc1: 6.39
- OCCC1CCN(Cc2ccc(-c3ccc(-c4nc5ccccc5[nH]4)cc3)cc2)CC1: 8.45
- Oc1ccccc1CN1CCCC(COC(c2ccc(F)cc2)c2ccc(F)cc2)C1 (stereo not given): 3.68
- Cc1cc(N[C@@H](Cc2ccccc2)C(=O)Nc2ccccc2)nc(NCCc2ccccc2)n1: 3.8
- CCCc1cc(N2CCC(N3CCCC3)CC2)nc(Nc2ccc(Cl)cc2)n1: -1.71
- COc1cc2nc(N3CCN(C(=O)c4cccc(I)c4)CC3)nc(N)c2cc1OC: 5.23
- COc1ccc(NC(=O)N2CCCN(CCCCCNC(=O)/C=C/c3ccc(Cl)cc3)CC2)cc1Cl: 2.15
- COc1cccc2c(N/N=C/c3ccc([N+](=O)[O-])cc3)ccnc12: 11.3
- COc1ccc(CCN(C)CCCOc2ccc(NC(=O)COc3cccc4sc5ccccc5c(=O)c34)cc2)cc1OC: -2.54

###

Entries and their inhibition values follow.
measured target: Solute carrier family 2, facilitated glucose transporter member 1 (Homo sapiens)
protocol notes: ST_JUDE_LEISH: Cytotoxicity at 2uM final concentration against transgenic Leishmania Mexicana promastigotes LmGLUT1 that are glucose transport deficient and complemented with the human glucose transporter GLUT1. Activity is measured by DNA content using SYBR green in vitro
Assay type: functional
measure name: inhibition (%)

* O=C(Nc1ccc2c(c1)CN(Cc1ccc(N3CCCC3)o1)CCC2)c1ccoc1 | 19.8
* Cc1ccc(C(C)C)c(Oc2cnc(NC(CO)c3ccccc3)nc2N)c1 (stereo not given) | 9.07
* CN(C)Cc1cccc(-c2ccc(NC(=O)c3ccc4c(=O)n(C5CCCCC5)cnc4c3)cc2)c1 | 76
* Oc1cc(Nc2ccnc3cc(I)ccc23)c(F)cc1Cl | 6.52
* CN1CCN(Cc2cc3cc(NC(=O)/C=C/c4cccc(Cl)c4)ccc3s2)CC1 | 0.65

###

measured target: Glucose transporter (Leishmania mexicana) (UniProt O61059)
protocol notes: ST_JUDE_LEISH: Cytotoxicity at 2uM final concentration against transgenic Leishmania Mexicana promastigotes LmGT2 that are glucose transport deficient and complemented with the L. Mexicana glucose transporter 2. Activity is measured by DNA content using SYBR green in vitro
Assay type: functional
Entries and their inhibition values follow.
measure name: inhibition (%)

• CCCCCCCC(=O)N[C@@H](Cc1ccccc1)C(=O)N[C@H](C(=O)O)C(C)C = 2.59
• Cc1cc(-c2ccc(Cl)cc2)c2c(N)c(C(=O)Nc3ccc(F)cc3)sc2n1 = 0.35
• Cc1cc(N[C@@H](Cc2ccccc2)C(=O)NCc2cccs2)nc(NCCc2ccccc2)n1 = -1.2
• C[C@H](Cc1ccc(OCCCCCOc2ccc(C[C@@H](C)NC[C@H](O)c3cccc(Cl)c3)cc2)cc1)NC[C@H](O)c1cccc(Cl)c1 = 107
• CC(C)(C)c1cc(NC(=O)c2ccc(Cl)c([N+](=O)[O-])c2)cc(C(C)(C)C)c1 = 6.21
• Cc1ccc(OCC2CCN(c3ncc(C(=O)NC4CC4)cc3Cl)CC2)cc1 = 0.52
• COc1ccc(NC(=O)Nc2cccc(-c3cccc(-c4nc5cccc(C)c5[nH]4)c3)c2)cc1 = -1.79
• Fc1cccc(Nc2nc(NCCc3ccc(Cl)cc3)nc(Nc3cccc(F)c3)n2)c1 = -4.86
• COc1ccc2c(=O)c3ccc(OC)cc3[nH]c2c1 = -0.67
• COc1cc(Cc2cnc(N)nc2N)ccc1OCc1ccc(F)c(F)c1 = 4.59

###

Entries and their inhibition values follow.
measured target: Glucose transporter (Leishmania mexicana) (UniProt O61059)
protocol notes: ST_JUDE_LEISH: Cytotoxicity at 2uM final concentration against transgenic Leishmania Mexicana promastigotes LmGT2 that are glucose transport deficient and complemented with the L. Mexicana glucose transporter 2. Activity is measured by DNA content using SYBR green in vitro
Format: functional
measure name: inhibition (%)

* CC1CNC(c2cccc(NC(=O)Nc3cccc(C4=NC(C)CN4)c3)c2)=N1 (stereo not given) | 6.15
* COc1ccc2nccc(NC(=O)N3CCC(NCc4cc5ccccc5[nH]4)CC3)c2n1 | 2.89
* O=C(NCCCN1CCN(c2cccc(Cl)c2)CC1)c1ccc(-c2nc3cc(Cl)c(Cl)cc3[nH]2)cc1 | 13.7
* O=c1[nH]c2ccc(Nc3nccc(NCCc4ccccc4)n3)cc2[nH]1 | 5.12
* N#Cc1cccc(/C=C/C(=O)NC2CCC(CCN3CCc4ccc(-c5cnccn5)cc4CC3)CC2)c1 (stereo not given) | 7.56
* CN(C)c1nc(NCc2ccccc2)nc(N/N=C/c2cc([N+](=O)[O-])ccc2O)n1 | -1.5
* CCOC(=O)c1nc2ccc(SC3CCCCC3)cn2c1Br | 5.65
* FC(F)c1nc2ccccc2n1-c1nc(N2CCOCC2)nc(N2CCOCC2)n1 | 3.12
* OC1=C2C(=Nc3ccccc3SC2c2cccs2)c2ccccc21 (stereo not given) | 1.64
* COc1ccc2[nH]c(C)cc(=NN=Cc3ccc(Cl)cc3)c2c1 | -0.5
